biological target: human ether-à-go-go-related gene (hERG) potassium channel (human, UniProt Q12809); experiment: primary screen, population patch clamp on CHO cells stably expressing hERG; higher = less effect of the substance
Sequence (Q12809 whole entry, looked up): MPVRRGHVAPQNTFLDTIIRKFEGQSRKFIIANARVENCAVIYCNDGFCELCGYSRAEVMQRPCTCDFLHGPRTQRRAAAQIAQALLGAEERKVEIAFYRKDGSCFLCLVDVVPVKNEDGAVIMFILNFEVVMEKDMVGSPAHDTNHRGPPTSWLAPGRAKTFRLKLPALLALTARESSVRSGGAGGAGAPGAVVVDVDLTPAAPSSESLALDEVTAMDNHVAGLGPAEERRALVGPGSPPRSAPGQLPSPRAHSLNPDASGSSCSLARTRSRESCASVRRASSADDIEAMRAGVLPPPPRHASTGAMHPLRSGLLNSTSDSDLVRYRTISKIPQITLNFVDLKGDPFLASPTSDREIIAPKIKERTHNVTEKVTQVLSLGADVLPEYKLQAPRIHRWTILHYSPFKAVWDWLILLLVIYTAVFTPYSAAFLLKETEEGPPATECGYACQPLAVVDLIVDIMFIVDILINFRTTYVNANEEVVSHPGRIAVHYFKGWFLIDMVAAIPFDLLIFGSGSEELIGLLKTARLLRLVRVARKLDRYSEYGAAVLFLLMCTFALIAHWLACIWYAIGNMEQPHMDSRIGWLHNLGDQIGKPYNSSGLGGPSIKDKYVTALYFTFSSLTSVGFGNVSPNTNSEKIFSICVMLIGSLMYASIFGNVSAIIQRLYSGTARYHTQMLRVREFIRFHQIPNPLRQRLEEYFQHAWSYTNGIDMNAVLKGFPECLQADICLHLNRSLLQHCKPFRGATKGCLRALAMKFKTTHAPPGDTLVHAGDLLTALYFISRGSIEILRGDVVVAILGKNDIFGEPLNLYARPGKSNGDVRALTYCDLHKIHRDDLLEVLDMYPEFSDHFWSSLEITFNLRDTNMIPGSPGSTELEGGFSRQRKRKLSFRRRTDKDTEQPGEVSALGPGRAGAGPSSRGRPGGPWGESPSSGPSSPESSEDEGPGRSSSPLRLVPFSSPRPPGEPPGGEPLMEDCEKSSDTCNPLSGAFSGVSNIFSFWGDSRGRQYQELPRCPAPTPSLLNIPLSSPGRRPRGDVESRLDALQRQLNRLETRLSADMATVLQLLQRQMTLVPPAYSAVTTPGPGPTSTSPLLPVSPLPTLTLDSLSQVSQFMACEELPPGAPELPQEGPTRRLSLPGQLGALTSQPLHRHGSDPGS
About 2,200 (0.71%) of roughly 310,000 compounds showed an effect of 50% or more. Effects have a minus sign here. This is one part of a sample in which strong results are shown more often than they occur.
Rule: hERG current change (%, negative = inhibition) at 1uM of -40% or more gives yes; anything lower gives no.

structure-smiles | assigned-label
Cc1ccc(C(=O)N/C(=C/c2ccc(F)cc2)C(=O)NCc2ccncc2)cc1 | no
N#Cc1ccccc1CSc1ccc(-c2nc3ccccc3[nH]2)cn1 | yes
COc1ccc(/C=C(/NC(=O)c2ccc(C)cc2)C(=O)NCc2ccncc2)cc1 | yes
Cc1ccc(C(=O)N/C(=C\c2ccccc2)C(=O)NCc2cccnc2)cc1 | no
COc1ccc(CN2CCC(n3nccc3NC(=O)c3cccc(F)c3)CC2)cc1O | no
CCOc1cccc(CN2CCC(n3nccc3NC(=O)c3ccc4c(c3)OCO4)CC2)c1 | yes
CC(C)n1cc(CN2CCC(n3nccc3NC(=O)C3CCCC3)CC2)cn1 | yes
CCn1cc(CN2CCC(n3nccc3NC(=O)c3cccc(F)c3)CC2)cn1 | yes
CN(C)/C=C/C(=O)c1ccccc1F | yes
O=C(O)c1cccc(-n2cc(-c3cccc(C(F)(F)F)c3)cn2)c1 | yes
CCc1ccc(CN2CCC(n3nccc3NC(=O)C3CCCC3)CC2)cc1 | no
CC(C)Oc1ccc(CN2CCC(n3nccc3NC(=O)c3cccnc3)CC2)cc1 | no
Cc1ccc(C(=O)N/C(=C/c2ccccc2)C(=O)NCc2ccncc2)cc1 | yes
Cc1nc(C)c(C(=O)NCc2ccccc2Cl)o1 | yes
CCCCN(CC)CCNC(=O)c1cc2c(=O)[nH]c3ccccc3c2n1C | yes
O=C(Nc1cccc2ccccc12)/C(=C\c1cccc([N+](=O)[O-])c1)NC(=O)c1cccs1 | no
Cc1ccc(NC(=O)/C(=C\c2cccc([N+](=O)[O-])c2)NC(=O)c2cccs2)cc1 | yes
CCc1ccc(CN2CCC(n3nccc3NC(=O)c3ccc4c(c3)OCO4)CC2)cc1 | no
CC(C)Cc1ccc(CN2CCC(n3nccc3NC(=O)C3CCCC3)CC2)cc1 | yes

----------
biological target: human ether-à-go-go-related gene (hERG) potassium channel (human, UniProt Q12809); assay: primary screen, population patch clamp on CHO cells stably expressing hERG; higher = less effect of the substance
Out of some 310,000 compounds screened, about 2,200 (0.71%) showed an effect of 50% or more. Effects have a minus sign here. Only a selection was taken, and strong results are over-represented in it overall.
observation-type: hERG current change (%, negative = inhibition) at 1uM

molecule | result
O=C(c1ccco1)N1CCN(C(=O)c2ccc(-c3cccc(C(F)(F)F)c3)o2)CC1 | -63.5%
CCN(Cc1nc2ccccc2c(=O)[nH]1)Cc1cc(=O)oc2cc(C)c(C)cc12 | -25.2%
Cn1cc(CC(=O)N2CCN(c3ccc(Cl)cc3)CC2)c2ccccc21 | -0.545%
CCc1ccc2c(CN(CC)Cc3nc4ccccc4c(=O)[nH]3)cc(=O)oc2c1 | -60.5%
O=[N+]([O-])c1cccc2ccc(/C=C/c3ccc(Cl)cc3)nc12 | 1.88%
CCN(Cc1nc2ccccc2c(=O)[nH]1)Cc1cc(=O)oc2cc(OC)ccc12 | -25.6%
COc1cc(/C=C2\SC(N3CCc4ccccc4C3)=NC2=O)cc(OC)c1OC | 5.93%
CN(C)CCNc1nc2c(c(=O)[nH]c(=O)n2C)n1CC(O)COc1ccc(Cl)cc1 (stereo not shown) | 5.04%
CN(C)CCNc1nc2c(c(=O)[nH]c(=O)n2C)n1CC(O)COc1ccc(Cl)cc1Cl (stereo not shown) | -30.6%
Cc1ccc2c(CN3CCCCC3)cc(=O)oc2c1 | 6.38%
COc1ccc2oc(=O)cc(CN3CCN(Cc4ccc(OC)c(OC)c4OC)CC3)c2c1 | -2.05%
COc1ccc(CNS(=O)(=O)c2ccc(-n3cnnn3)c(OC)c2)cc1 | -2.65%
CC(=O)Nc1ccc(S(=O)(=O)Nc2ccc(S(=O)(=O)N3CCCC3)cc2)cc1 | 4.58%
O=c1cc(CN2CCN(Cc3ccccc3)CC2)c2ccc(O)cc2o1 | -79.7%
Cc1ccc2c(CN3CCOCC3)cc(=O)oc2c1 | -6.01%
COc1ccc(CN2CCN(Cc3cc(=O)oc4cc(C)ccc34)CC2)c(OC)c1OC | -87.6%
CCN(CC)CCNc1nc2c(c(=O)[nH]c(=O)n2C)n1CC(O)COc1ccc(Cl)cc1Cl (stereo not shown) | -66.1%
COc1ccc(-c2cc(C(=O)N3CCN(C(=O)c4ccco4)CC3)[nH]n2)cc1 | -12.7%
Cc1cccc(S(=O)(=O)Nc2cccc3c2C(=O)c2ccccc2-3)c1 | 3.03%
